Measured values drawn from PubChem BioAssay AID1515 for this set.

- assayed_system: Serine hydrolase RBBP9 (Homo sapiens)
- experiment_summary: human RBBP9 inhibitors, primary screen, biochemical, fluorescence polarization, FP-Rh probe, HTS (AID 1515)
- settings: recombinant RBBP9, FP-Rh probe fluorescence polarization; at 7.94 µM
The campaign covered roughly 220,000 compounds. About 440 (0.2%) were called active.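 The calls were made as follows: active = inhibition above the campaign mean of all tested compounds plus 3 SD (cut at about 14% in these data); inactive = the rest.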 The sample holds actives, similar compounds and a random draw of the others, so the mix is not that of the screen.
Reply using exactly one outcome from yes (active), no (inactive)

Problem: I'd appreciate the recorded outcome for CCOC(=O)CCCNC(=O)COC(=O)/C=C/c1ccc2c(c1)OCO2 from this test.
Result: no

---

- assayed_system: Serine hydrolase RBBP9 (Homo sapiens) (UniProt O75884)
- Sequence (O75884 whole entry, looked up): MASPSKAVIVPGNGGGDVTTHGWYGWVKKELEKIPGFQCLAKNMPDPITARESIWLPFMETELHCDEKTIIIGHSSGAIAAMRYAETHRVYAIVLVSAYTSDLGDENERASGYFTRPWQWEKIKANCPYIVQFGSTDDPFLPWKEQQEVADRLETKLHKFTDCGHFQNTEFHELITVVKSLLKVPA
- experiment_summary: human RBBP9 inhibitors, primary screen, biochemical, fluorescence polarization, FP-Rh probe, HTS (AID 1515)
- settings: recombinant RBBP9, FP-Rh probe fluorescence polarization; at 7.94 µM
In all, about 220,000 compounds went through this assay and about 440 (0.2%) were called active.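 Rule for the calls: active = inhibition above the campaign mean of all tested compounds plus 3 SD (cut at about 14% in these data); inactive = the rest.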 The sample holds actives, similar compounds and a random draw of the others, so the mix is not that of the screen.
A correct response names exactly one class from true (active), false (inactive)

compound | category
Oc1ccc(N=Cc2sc3ccccc3c2Cl)cc1 | true
COc1cccc(-n2nc(C(=O)N3CCN(Cc4ccccc4)CC3)c3ccccc3c2=O)c1 | false
CCCC(=O)Nc1ccc2c(c1)nc(CCNC(=O)c1ccco1)n2C | false
CCOC(=O)c1sc(=NC(=O)/C=C/c2cccs2)n(C)c1C | false
CSc1ccccc1NC(=O)CN(C)CC(=O)Nc1ccc(Cl)cc1[N+](=O)[O-] | false
Cc1ccc(-c2cc(C(=O)NCC3CCCO3)c3ccccc3n2)o1 (stereo unspecified) | false
O=S(=O)(NC1CC1)c1ccc2c3c(cccc13)CC2 | false
CC1=CC(C)(C)N(C(=O)CSc2nnc(-c3ccccc3)o2)c2ccc(C)cc21 | false

Next, consider the following compound.
Problem: Any idea what this test logged for CCOc1ccc2nc(NCCNC(=O)C(C)(C)C)c(C)cc2c1 ?
Result: false
